- test.system: K^+ -depolarized guinea pig ileum or taenia (Cavia porcellus)
- Construct: pieces of ileum, 2 cm in length, from male guinea pigs (200-400 g) were set up in isolated organ baths; from tissue; host or cells: strips of taenia from the caecum or pieces of ileum of male guinea pigs
- Sequence (O35505 whole entry): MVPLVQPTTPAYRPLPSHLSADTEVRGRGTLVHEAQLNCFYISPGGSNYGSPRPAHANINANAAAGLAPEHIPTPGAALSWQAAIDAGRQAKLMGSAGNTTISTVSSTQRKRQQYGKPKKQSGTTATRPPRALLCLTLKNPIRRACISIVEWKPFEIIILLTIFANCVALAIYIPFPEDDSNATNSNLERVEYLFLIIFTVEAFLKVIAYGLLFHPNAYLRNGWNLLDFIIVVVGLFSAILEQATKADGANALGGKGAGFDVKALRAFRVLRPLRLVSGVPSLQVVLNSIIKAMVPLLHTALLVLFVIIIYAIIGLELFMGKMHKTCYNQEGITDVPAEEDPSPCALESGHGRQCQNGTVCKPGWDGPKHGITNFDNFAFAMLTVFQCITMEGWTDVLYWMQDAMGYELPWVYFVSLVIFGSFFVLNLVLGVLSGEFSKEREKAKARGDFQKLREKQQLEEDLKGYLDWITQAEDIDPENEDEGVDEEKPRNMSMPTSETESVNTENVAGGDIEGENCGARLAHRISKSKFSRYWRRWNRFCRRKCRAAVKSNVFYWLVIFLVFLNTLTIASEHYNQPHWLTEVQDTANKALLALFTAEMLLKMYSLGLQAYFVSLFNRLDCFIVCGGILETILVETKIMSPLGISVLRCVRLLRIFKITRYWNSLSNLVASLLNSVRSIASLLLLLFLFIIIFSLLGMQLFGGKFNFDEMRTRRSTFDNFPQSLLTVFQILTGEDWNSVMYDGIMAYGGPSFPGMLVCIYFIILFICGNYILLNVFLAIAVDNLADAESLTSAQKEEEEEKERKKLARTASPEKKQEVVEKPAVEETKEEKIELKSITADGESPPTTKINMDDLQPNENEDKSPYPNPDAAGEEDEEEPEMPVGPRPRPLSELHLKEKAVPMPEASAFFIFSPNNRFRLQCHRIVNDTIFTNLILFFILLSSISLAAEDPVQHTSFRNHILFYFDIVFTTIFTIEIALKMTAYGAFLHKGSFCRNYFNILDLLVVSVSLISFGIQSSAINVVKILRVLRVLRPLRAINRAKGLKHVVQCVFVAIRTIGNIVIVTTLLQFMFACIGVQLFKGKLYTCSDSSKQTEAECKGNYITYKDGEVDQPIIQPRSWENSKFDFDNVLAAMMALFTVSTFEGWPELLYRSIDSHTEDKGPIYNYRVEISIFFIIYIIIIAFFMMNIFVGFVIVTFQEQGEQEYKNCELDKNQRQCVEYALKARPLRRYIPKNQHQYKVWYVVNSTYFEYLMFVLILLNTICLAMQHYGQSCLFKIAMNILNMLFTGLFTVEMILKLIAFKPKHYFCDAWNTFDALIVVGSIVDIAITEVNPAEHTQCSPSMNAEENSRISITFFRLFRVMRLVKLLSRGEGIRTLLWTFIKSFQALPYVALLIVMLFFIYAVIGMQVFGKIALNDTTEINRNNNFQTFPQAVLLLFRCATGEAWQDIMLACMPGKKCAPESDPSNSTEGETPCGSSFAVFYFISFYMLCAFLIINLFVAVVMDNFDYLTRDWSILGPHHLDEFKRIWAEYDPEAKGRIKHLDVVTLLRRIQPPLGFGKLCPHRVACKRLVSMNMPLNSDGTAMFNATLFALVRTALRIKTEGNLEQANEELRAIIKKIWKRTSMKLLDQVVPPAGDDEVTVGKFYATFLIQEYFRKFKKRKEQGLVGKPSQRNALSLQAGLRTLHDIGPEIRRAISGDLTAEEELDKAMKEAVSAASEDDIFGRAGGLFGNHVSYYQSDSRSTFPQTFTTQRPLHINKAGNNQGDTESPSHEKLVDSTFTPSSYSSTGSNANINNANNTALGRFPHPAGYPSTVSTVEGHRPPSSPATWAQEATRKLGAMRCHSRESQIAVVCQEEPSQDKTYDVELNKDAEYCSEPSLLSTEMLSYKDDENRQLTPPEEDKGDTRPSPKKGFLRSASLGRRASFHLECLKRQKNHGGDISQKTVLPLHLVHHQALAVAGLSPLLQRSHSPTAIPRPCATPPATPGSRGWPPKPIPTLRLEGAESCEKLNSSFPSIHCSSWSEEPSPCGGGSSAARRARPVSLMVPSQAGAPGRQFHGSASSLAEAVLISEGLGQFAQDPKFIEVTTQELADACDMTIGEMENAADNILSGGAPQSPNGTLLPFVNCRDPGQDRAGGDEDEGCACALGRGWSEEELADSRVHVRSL
- assay.explanation: Antagonism of Ca^++ -induced contractions of K^+ -depolarized guinea pig taenia or ileum
- Type: cell-based
- study.conditions: Table 1; guinea pig ileum or taenia, K^+ -depolarized; Ca^++ -induced contraction; Arunlakshana & Schild
Some compounds, each annotated with its measured pA2.

{"columns": ["compound", "test.system", "pA2"],
 "data": [
  ["C1CCNC(=NC2C3CC4CC(C3)CC2C4)CC1 (stereo not shown) [Test Compound 13, 2-(2-adamantanylimino)hexahydroazepine]", "K^+ -depolarized guinea pig ileum or taenia (Cavia porcellus)", 5.47],
  ["c1ccc([C@H]2CCC[C@H]2N=C2CCCCCCCN2)cc1 (relative stereo)", "K^+ -depolarized guinea pig ileum or taenia (Cavia porcellus)", 4.84],
  ["CCCCOc1ccc(C(N=C2CCCCCN2)c2ccccc2)cc1 (stereo not shown)", "K^+ -depolarized guinea pig ileum or taenia (Cavia porcellus)", 5.86],
  ["CC(N=C1CCCCCN1)c1cccc2ccccc12 (single isomer, unassigned; (+)) [Test Compound 25]", "K^+ -depolarized guinea pig ileum or taenia (Cavia porcellus)", 5.47]
]}
